tested on: SW-620; assay: NCI tumour cell line growth inhibition, 48 h
Active and inactive are the calls of the source. No stated cut-off is given here; in the data, active = GI50 up to about 1.1 µM and inactive = higher.
Assay endpoint: GI50

Compound | Assay endpoint | Observed
COc1cc2oc(=O)ccc2cc1C1OC(=O)C2OC21C (stereo not drawn) | GI50 | > 100 µM (inactive)

GI50 reported for this compound CN/N=C(\C)C(CN(C)C)C(c1ccccc1)c1c(O)c2ccccc2oc1=O (stereo not drawn) : > 100 µM (inactive)

GI50 reported for this compound NCCc1c[nH]c2ccc(OC(=O)C(=O)O)cc12 : > 100 µM (inactive)

----------
tested on: NCI-H23; test: NCI tumour cell line growth inhibition, 48 h
Active and inactive are the calls of the source. No stated cut-off is given here; in the data, active = GI50 up to about 1.1 µM and inactive = higher.
Assay endpoint: GI50

Compound | Tgt | GI50
C=C1C(=O)OC2/C=C(/C)C(OC(C)=O)CC(O)/C(C)=C\C(OC(=O)/C(C)=C\C)C12 (stereo not given) | NCI-H23 | > 100 µM (inactive)
N#CC(C(=O)CCCC(=O)Nc1ccc(Cl)cc1Cl)c1ccccc1 (stereo not given) | NCI-H23 | > 100 µM (inactive)
CC[C@H]1C=CCC[C@@]2(C[C@@H]3CC[C@H]4[C@@H](C(=O)OCCCCCCCCCCCCCCCC(=O)N(CCCN)C[C@@H](O)CCN)[C@@]5(CCC[C@@H](C)O5)NC(=[N+]34)N2)O1 | NCI-H23 | 1.78 µM (inactive)
O=C1Cc2c([nH]c3ccccc23)-c2cc(Br)ccc2N1 | NCI-H23 | > 100 µM (inactive)
COc1cc(CNc2nc3c(N)cc(C(F)(F)F)cc3nc2-c2ccccc2)cc(OC)c1OC | NCI-H23 | 19 µM (inactive)
CCCCCC(=O)CCCCCCCC(O)CC(=O)OCC (stereo not given) | NCI-H23 | > 100 µM (inactive)

GI50 reported for this compound CCCc1c(Cl)nc(Cl)nc1Cl : 0.428 µM (active)

GI50 reported for this compound CC(=O)Nc1ccc(C2SCc3nc4ccccc4n32)cc1 (stereo not given) : 34.6 µM (inactive)

GI50 reported for this compound CO/C=C(/C(=O)OC)c1ccccc1COc1cccc(C(F)(F)F)c1 : 2.26 µM (inactive)

GI50 reported for this compound Clc1cc(-c2ccccc2)nc2ccccc12 : 51.6 µM (inactive)

----------
system: IGROV-1; experiment: NCI tumour cell line growth inhibition, 48 h
Calls of active or inactive are those of the source. Rule as the data show it: active = GI50 up to about 1.1 µM and inactive = higher.
Reply using exactly one outcome from TRUE for active, FALSE for inactive

Use the examples below as a reference point.
Compound | Label class
Cc1cc(C)n(C(C)(C(=O)Cc2ccccc2)n2nc(C)cc2C)n1 | FALSE
COc1ccc2c(c1)C(N)CC2=O (stereo not given) | FALSE
N=C(N)NCCCC(NC(=O)c1cccc2c(=O)c3ccccc3[nH]c12)C(=O)O (stereo not given) | FALSE
Cn1c(-c2ccc(/N=N/Nc3ccc(-c4n[nH]c(=S)n4C)cc3)cc2)n[nH]c1=S | FALSE

Data request: Dear all, I need the recorded test outcome for N#CC(C#N)=C1SC(=N\c2ccccc2)/C(=N/c2ccccc2)N1c1ccccc1 , thank you.
Data returned: FALSE

Data request: Dear all, I need the recorded test outcome for COC1CC(OC)C(O)C(CO)O1 (stereo not given) , thank you.
Data returned: FALSE

Data request: Dear all, I need the recorded test outcome for CC(C)(C)c1ccc(-n2c3nc(=O)n(-c4ccccc4C(F)(F)F)c(=O)c-3cc3ccccc32)cc1 , thank you.
Data returned: FALSE

Data request: Dear all, I need the recorded test outcome for CN(C)c1ccc(/C(Br)=C2\OC(=O)c3ccccc32)cc1 , thank you.
Data returned: FALSE

----------
tested on: HOP-62; test: NCI tumour cell line growth inhibition, 48 h
Calls of active or inactive are those of the source. No stated cut-off is given here; in the data, active = GI50 up to about 1.1 µM and inactive = higher.
Assay endpoint: GI50

Molecule | GI50
CCc1n[nH]c(=O)n1CCCCCCCCCCCCn1c(CC)n[nH]c1=O | 56.6 µM (inactive)

GI50 reported for this molecule O=C1NC(=O)[C@@H](OCC2CCCCC2)[C@@H]2OCC3OC(C(O)C3O)C12 (some centres undefined) : > 100 µM (inactive)

GI50 reported for this molecule CC(C)CCCC(C)[C@H]1CCC2[C@@H]3CCC4Cc5nc6c(nc5C[C@]4(C)C3CC[C@@]21C)CC1CC[C@@H]2C(CC[C@@]3(C)C2CC[C@@H]3O)[C@@]1(C)C6 (some centres undefined) : > 100 µM (inactive)

GI50 reported for this molecule COc1ccc2[nH]c3c(cnn4cnnc34)c2c1 : > 100 µM (inactive)

----------
In this section, each of the compounds is paired with its reported GI50.
system: IGROV-1; experiment: NCI tumour cell line growth inhibition, 48 h
Activity calls are given as the source filed them. Rule as the data show it: active = GI50 up to about 1.1 µM and inactive = higher.

Consider the reported GI50 for these compounds:
Compound | GI50
CC(=O)OCC1OC(n2c3c(c(-c4ccc(Cl)cc4)c(C#N)c2=S)C(=O)CC(C)(C)C3)C(OC(C)=O)C(OC(C)=O)C1OC(C)=O (centres undefined) | 40.7 µM (inactive)
Cc1sc2nc(-c3cc([N+](=O)[O-])c(Cl)cc3Cl)c(/C=N/NC(=N)N)n2c1C | 2.34 µM (inactive)
CC(NNC(=O)c1cc[n+]([BH2-]C#N)cc1)c1cccc(C(F)(F)F)c1 (centres undefined) | > 100 µM (inactive)
Nc1cccc(Nc2nc3ccccc3nc2NS(=O)(=O)c2ccccc2)c1 | 24.5 µM (inactive)
Cc1ccc(S(=O)(=O)NC(=O)Nc2ccc(S(N)(=O)=O)cc2S(N)(=O)=O)cc1 | > 100 µM (inactive)
Cc1cccc2nc3cccc(C(=O)NCCC[N+](C)(CCCNC(=O)c4cccc5nc6cccc(C)c6nc45)Cc4c([N+](=O)[O-])ncn4C)c3nc12 | 11.1 µM (inactive)
CCN(CC)C(=S)/N=C(\SC(=S)N(CC)CC)c1ccccc1 | 21.4 µM (inactive)
CNC(=S)N/N=C/c1cccc(C)n1 | 44.7 µM (inactive)

Now turn to the next compound.
GI50 reported for this compound CCN(CC)CCNC(=O)c1ccc(C)c(OCc2ccccc2)c1[N+](=O)[O-] : 62.8 µM (inactive)

----------
system: Hs-578T; test: NCI tumour cell line growth inhibition, 48 h
The source made the active and inactive calls. Rule as the data show it: active = GI50 up to about 1.1 µM and inactive = higher.
Reply using exactly one outcome from 1 for active, 0 for inactive

Use the examples below as a reference point.
Molecule | Label class
CCOC(=O)CC(=O)CSc1c(-c2ccccc2)c(=O)n(-c2ccccc2)c(=S)n1-c1ccccc1 | 0
COc1ccc(-c2cc(-c3cc(OC)c(OC)c(OC)c3)cc(-c3cc4ccccc4oc3=O)n2)cc1 | 0
O=c1[nH]n(Cc2ccccc2Cl)c2ccc([N+](=O)[O-])cc12 | 0

Data request: Dear all, I need the recorded test outcome for CN(C)c1ccc(C(=NNC(=O)c2cc3ccccc3[nH]2)c2ccc(N(C)C)cc2)cc1 , thank you.
Data returned: 1

Data request: Dear all, I need the recorded test outcome for O=[Se](O)O , thank you.
Data returned: 1

Data request: Dear all, I need the recorded test outcome for O=C1N(CN2CCOCC2)CN(CN2CCOCC2)C(=O)N1Cc1ccc(-c2ccc(CN3C(=O)N(CN4CCOCC4)CN(CN4CCOCC4)C3=O)cc2)cc1 , thank you.
Data returned: 0

Data request: Dear all, I need the recorded test outcome for O=C(OCC(OC(=O)c1ccccc1)C1CC(C(O)C2CCCCC2)C(=O)O1)c1ccccc1 (stereo not drawn) , thank you.
Data returned: 0

Data request: Dear all, I need the recorded test outcome for CC1OC(OC2C(O)COC(OC3C(C)OC(OC4C(OC(=O)[C@]56CCC(C)(C)C[C@@H]5C5=CCC7[C@@]8(C)C[C@H](O)[C@H](OC9OC(CO)C(O)C(OC%10OC(CO)C(O)C(O)C%10O)C9O)[C@@](C)(CO)[C@@H]8CC[C@@]7(C)[C@]5(C)CC6)OCC(O)C4O)C(O)C3OC3OCC(O)(CO)C3O)C2O)C(O)C(O)C1O (stereo partly drawn) , thank you.
Data returned: 0

Data request: Dear all, I need the recorded test outcome for COC(=O)CN1Cc2cc(C)cc(c2O)CN(CC(=O)OC)Cc2cc(C)cc(c2O)CN(CC(=O)OC)Cc2cc(C)cc(c2O)C1 , thank you.
Data returned: 0

Data request: Dear all, I need the recorded test outcome for O=C(NCCNCCNC(=O)C(F)(F)F)C(F)(F)F , thank you.
Data returned: 0

Data request: Dear all, I need the recorded test outcome for COP(=O)(OC)/C(=C/c1cn(C(c2ccccc2)(c2ccccc2)c2ccccc2)cn1)NC=O , thank you.
Data returned: 0

----------
test system: SK-MEL-5; experiment: NCI tumour cell line growth inhibition, 48 h
Calls of active or inactive are those of the source. No stated cut-off is given here; in the data, active = GI50 up to about 1.1 µM and inactive = higher.
In this section, each of the compounds is paired with its reported GI50.

Consider the reported GI50 for these compounds:
Compound | GI50
COc1cc2c(cc1OC)C(C#N)N(C(=O)c1ccccc1)C=C2OC(=O)c1ccccc1 (stereo not drawn) | 23.9 µM (inactive)
O=S(=O)(O)c1ccc(/N=N\c2ccc(/N=N/c3ccc(/C=C/c4ccc(/N=[N+](\[O-])c5ccc(/C=C/c6ccc(/N=N/c7ccc(/N=N/c8ccc(S(=O)(=O)O)cc8)c8ccccc78)cc6S(=O)(=O)O)c(S(=O)(=O)O)c5)cc4S(=O)(=O)O)c(S(=O)(=O)O)c3)c3ccccc23)cc1 | > 100 µM (inactive)
CCN1CCC(O)(/C=C/c2cccc(C)c2)C(C(=O)/C=C/c2cccc(C)c2)C1 (stereo not drawn) | 1.88 µM (inactive)

GI50 reported for this compound C=C(C)CCN(C(=O)OC(C)(C)C)c1cc(C(C)C)co1 : 44.3 µM (inactive)

GI50 reported for this compound N#CC(C#N)=C1SC(=N\c2ccccc2)/C(=N/c2ccccc2)N1c1ccccc1 : 14.3 µM (inactive)

GI50 reported for this compound C=CCN1/C(=C(\C#N)c2nc3ccccc3[nH]2)Sc2c1nc[nH]c2=O : > 100 µM (inactive)

GI50 reported for this compound CCC(=O)Nc1ccc(NCC(=O)Nc2ccc(Cl)cc2)cc1 : 15.8 µM (inactive)

GI50 reported for this compound CC(C)CCCC(C)[C@H]1CCC2[C@@H]3CCC4Cc5nc6c(nc5C[C@]4(C)C3CC[C@@]21C)CC1CC[C@@H]2C(CC[C@@]3(C)C2CC[C@@H]3O)[C@@]1(C)C6 (stereo partly drawn) : > 100 µM (inactive)

GI50 reported for this compound Cc1ccc(/N=N/c2c(O)ccc3ccccc23)c(C)c1 : > 100 µM (inactive)

GI50 reported for this compound C[C@]12CCC(=O)C(O)=C1CC[C@@H]1[C@@H]2CC[C@]2(C)C(=O)CC[C@@H]12 : > 93.5 µM (inactive)

GI50 reported for this compound Cn1c(=O)c2nc(CCCCc3nc4c(=O)n(C)c(=S)n(C)c4[nH]3)[nH]c2n(C)c1=S : > 100 µM (inactive)

GI50 reported for this compound Nc1nnc(-c2ccco2)c(-c2ccco2)n1 : > 100 µM (inactive)

GI50 reported for this compound COC(=O)C1=C(C(=O)OC)C2(C)CCC(=O)C1O2 (stereo not drawn) : > 10 µM (inactive)

GI50 reported for this compound COC(=O)c1ccc(/N=N/N(C)COc2ccc([N+](=O)[O-])cc2)cc1 : > 96.8 µM (inactive)

GI50 reported for this compound O=NN1C(c2ccccc2)CCCC1c1ccccc1 (stereo not drawn) : 49.4 µM (inactive)

GI50 reported for this compound COc1cc2c(cc1C)NC(=O)/C2=C/c1c(Cl)[nH]c2ccccc12 : 3.15 µM (inactive)

GI50 reported for this compound CCOC(=O)C(=O)CC1=Nc2ccccc2SC(c2cccc(C)c2)C1 (stereo not drawn) : 18.2 µM (inactive)

GI50 reported for this compound O=c1[nH]c(=O)n(C2OC(CO)C(O)C2O)c2ncc(-c3ccc(-c4ccccc4)cc3)nc12 (stereo not drawn) : > 20 µM (inactive)

GI50 reported for this compound CC1(C)CCC2(C(=O)OC3OC(CO)C(O)C(O)C3O)CCC3(C)C(=CCC4C5(C)CCC(OC6OC(CO)C(O)C(O)C6O)C(C)(C)C5CCC43C)C2C1 (stereo not drawn) : 9.57 µM (inactive)

GI50 reported for this compound CC1OC2(CC(OCc3ccccc3)C1OCc1ccccc1)OCCO2 (stereo not drawn) : 33 µM (inactive)

GI50 reported for this compound N#CC(NCCc1ccccc1)c1ccccc1 (stereo not drawn) : > 100 µM (inactive)

GI50 reported for this compound Cc1ccc2ccc(O)cc2c1 : 57.4 µM (inactive)

GI50 reported for this compound Cc1nc2c(=O)[nH]ncc2[nH]1 : > 100 µM (inactive)

GI50 reported for this compound CCCN1CN(c2ccccc2)C2(CCN(CCCC(=O)c3ccc(F)cc3)CC2)C1=O : 1.44 µM (inactive)

GI50 reported for this compound O=C1CCC(=O)C1=NNc1cc(Cl)cc(Cl)c1 : 61.5 µM (inactive)

GI50 reported for this compound COc1ccc(/C=C/c2cc(OC)cc(OC)c2)cc1 : 4.23 µM (inactive)

GI50 reported for this compound OCC1C2CCC3(OCCO3)C12 (stereo not drawn) : > 100 µM (inactive)

GI50 reported for this compound CC(C)C[C@H](NC(=O)CCc1cccc2ccccc12)B(O)O : 0.457 µM (active)

GI50 reported for this compound CN1NC(c2ccccc2)=C(C#N)C(=O)CC1c1ccc(Br)cc1 (stereo not drawn) : 14.2 µM (inactive)

GI50 reported for this compound CC(=O)OCC1OC(n2c3c(c(-c4ccc(Cl)cc4)c(C#N)c2=S)C(=O)CC(C)(C)C3)C(OC(C)=O)C(OC(C)=O)C1OC(C)=O (stereo not drawn) : 11.7 µM (inactive)

GI50 reported for this compound COc1ccc(OC)c(C#Cc2ccc(OC)c(C(=O)NCCc3ccc(F)cc3)c2)c1 : 4.42 µM (inactive)
